Hello, the source for this data is patent US20260085073A1, in case you need it.

Some compounds, each annotated with its measured pIC50.
Assayed System: MALT1 (Homo sapiens, UniProt Q9UDY8)
Sequence (Q9UDY8 1-824): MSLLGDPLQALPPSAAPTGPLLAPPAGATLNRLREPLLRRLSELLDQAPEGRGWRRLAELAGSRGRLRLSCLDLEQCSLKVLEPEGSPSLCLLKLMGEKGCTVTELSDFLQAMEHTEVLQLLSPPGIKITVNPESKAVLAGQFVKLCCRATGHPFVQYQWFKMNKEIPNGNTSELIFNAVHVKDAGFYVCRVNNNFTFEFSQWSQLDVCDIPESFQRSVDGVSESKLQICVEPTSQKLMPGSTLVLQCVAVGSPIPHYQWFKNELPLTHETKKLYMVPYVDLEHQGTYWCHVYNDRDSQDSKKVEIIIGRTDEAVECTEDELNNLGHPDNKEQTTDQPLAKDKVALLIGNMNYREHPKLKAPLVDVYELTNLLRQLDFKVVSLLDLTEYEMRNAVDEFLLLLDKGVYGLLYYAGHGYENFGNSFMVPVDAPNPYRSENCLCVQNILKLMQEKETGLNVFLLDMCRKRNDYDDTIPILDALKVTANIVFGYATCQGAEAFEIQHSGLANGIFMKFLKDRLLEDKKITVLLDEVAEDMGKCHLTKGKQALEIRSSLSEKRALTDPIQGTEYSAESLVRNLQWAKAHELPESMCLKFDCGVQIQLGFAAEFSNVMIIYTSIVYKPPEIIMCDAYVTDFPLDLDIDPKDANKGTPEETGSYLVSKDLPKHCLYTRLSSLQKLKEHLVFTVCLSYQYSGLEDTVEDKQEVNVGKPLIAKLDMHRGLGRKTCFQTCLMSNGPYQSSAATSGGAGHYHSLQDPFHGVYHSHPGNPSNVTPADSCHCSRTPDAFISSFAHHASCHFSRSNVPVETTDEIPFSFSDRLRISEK
pIC50: −log10 of the molar value.

{"Smiles": "COc1cc(NC(=O)c2c(C(F)(F)F)c(-c3ccccc3)nn2C)ccn1", "pIC50": "< 5.00"}
{"Smiles": "Cn1nc(-c2n[nH]c3ccncc23)c(C(F)(F)F)c1C(=O)Nc1ccnc(C(F)(F)F)c1", "pIC50": "< 5.00"}
{"Smiles": "Cn1nc(-c2cccc3c2NC(=O)C3)c(C(F)(F)F)c1C(=O)Nc1ccnc(C(F)(F)F)c1", "pIC50": "5.60 to 6.30"}
{"Smiles": "Cn1nc(-c2ccc(Cl)c3nccn23)c(C(F)(F)F)c1C(=O)Nc1ccnc(C(F)(F)F)c1", "pIC50": "< 5.00"}
{"Smiles": "Cn1nc(-c2ccc(F)nc2F)c(C(F)(F)F)c1C(=O)Nc1ccnc(C(F)(F)F)c1", "pIC50": "5.00 to 5.60"}
{"Smiles": "COc1cccc(-c2nn(C)c(C(=O)Nc3ccnc(C(F)(F)F)c3)c2C(F)(F)F)c1OC", "pIC50": "5.60 to 6.30"}
{"Smiles": "COc1nc2cccc(-c3nn(C)c(C(=O)Nc4cnc(-n5nccn5)c(Cl)c4)c3C(F)(F)F)c2s1", "pIC50": "> 6.30"}
{"Smiles": "Cn1nc(/C=C/c2ccccc2)c(C(F)(F)F)c1C(=O)Nc1ccnc(C(F)(F)F)c1", "pIC50": "< 5.00"}
{"Smiles": "Cn1nc(-c2cccc3nc[nH]c23)c(C(F)(F)F)c1C(=O)Nc1ccnc(C(F)(F)F)c1", "pIC50": "5.60 to 6.30"}
{"Smiles": "Cn1nc(-c2ccc3cnccc3c2)c(C(F)(F)F)c1C(=O)Nc1ccnc(C(F)(F)F)c1", "pIC50": "< 5.00"}
{"Smiles": "Cn1nc(-c2ccccc2)c(C(F)(F)F)c1C(=O)Nc1cnc(-n2nccn2)c(C#N)c1", "pIC50": "> 6.30"}
{"Smiles": "Cn1nc(-c2cccc3ccoc23)c(C(F)(F)F)c1C(=O)Nc1cnc(-n2nccn2)c(C#N)c1", "pIC50": "> 6.30"}
{"Smiles": "Cn1nc(-c2nsc3ccccc23)c(C(F)(F)F)c1C(=O)Nc1ccnc(C(F)(F)F)c1", "pIC50": "5.60 to 6.30"}
{"Smiles": "O=C(Nc1cnc(-n2nccn2)c(Cl)c1)c1nn2c(c1C(F)(F)F)-c1ccccc1CC2", "pIC50": "> 6.30"}
{"Smiles": "Cn1nc(-c2cncc3ccn(C)c23)c(C(F)(F)F)c1C(=O)Nc1ccnc(C(F)(F)F)c1", "pIC50": "5.60 to 6.30"}
{"Smiles": "Cn1nc(-c2nccn3ccnc23)c(C(F)(F)F)c1C(=O)Nc1ccnc(C(F)(F)F)c1", "pIC50": "5.60 to 6.30"}
{"Smiles": "CN(C)c1cc(-c2nn(C)c(C(=O)Nc3ccnc(C(F)(F)F)c3)c2C(F)(F)F)ccn1", "pIC50": "< 5.00"}
{"Smiles": "Cn1nc(-c2cccn3nncc23)c(C(F)(F)F)c1C(=O)Nc1ccnc(C(F)(F)F)c1", "pIC50": "5.00 to 5.60"}
{"Smiles": "Cn1nc(-c2cccc3c2CNC3=O)c(C(F)(F)F)c1C(=O)Nc1ccnc(C(F)(F)F)c1", "pIC50": "> 6.30"}
{"Smiles": "Cn1nc(-c2c(F)ccc3ncsc23)c(C(F)(F)F)c1C(=O)Nc1ccnc(C(F)(F)F)c1", "pIC50": "> 6.30"}
{"Smiles": "CN(C)CCn1nc(-c2ccccc2)c(C(F)(F)F)c1C(=O)Nc1cnc(-n2nccn2)c(Cl)c1", "pIC50": "5.60 to 6.30"}
{"Smiles": "Cc1ccc(-c2nn(C)c(C(=O)Nc3ccnc(C(F)(F)F)c3)c2C(F)(F)F)c(Cl)c1", "pIC50": "5.60 to 6.30"}
{"Smiles": "Cn1nc(-c2cncc3ccccc23)c(C(F)(F)F)c1C(=O)Nc1ccnc(C(F)(F)F)c1", "pIC50": "5.60 to 6.30"}
{"Smiles": "Cn1nc(-c2cccc3c(=O)[nH]ncc23)c(C(F)(F)F)c1C(=O)Nc1ccnc(C(F)(F)F)c1", "pIC50": "5.60 to 6.30"}
{"Smiles": "Cn1nc(C(=O)Nc2ccnc(C(F)(F)F)c2)c(C2CC2)c1-c1ccccc1", "pIC50": "5.00 to 5.60"}
{"Smiles": "Cn1nc(-c2c[nH]c3cnccc23)c(C(F)(F)F)c1C(=O)Nc1ccnc(C(F)(F)F)c1", "pIC50": "5.60 to 6.30"}
{"Smiles": "Cn1nc(-c2cnc3cnccn23)c(C(F)(F)F)c1C(=O)Nc1ccnc(C(F)(F)F)c1", "pIC50": "< 5.00"}
{"Smiles": "Cn1nc(-c2cccc3ncccc23)c(C(F)(F)F)c1C(=O)Nc1ccnc(C(F)(F)F)c1", "pIC50": "5.60 to 6.30"}
{"Smiles": "Cn1nc(-c2cccc3ncsc23)c(C(F)(F)F)c1C(=O)Nc1cnc(-n2nccn2)c(C(F)(F)F)c1", "pIC50": "> 6.30"}
{"Smiles": "Cn1nc(-c2cccn3nccc23)c(C(F)(F)F)c1C(=O)Nc1ccnc(C(F)(F)F)c1", "pIC50": "> 6.30"}
